The measured values listed here are drawn from the supplement of paper PMC9170038.

test system: MS2 coat protein; test: apparent KD of MS2 coat protein; designed switch direction (-1 OFF switch, 1 ON switch): -1; higher = weaker reporter binding; details: input ligand: none
Exercise: state measured apparent KD of MS2 coat protein for each of the sequences provided.
Output should be the measured figure followed by the unit it is expressed in.

I'd like to know its apparent KD of MS2 coat protein. The sequence in question is UUUAGUUCAGGAUAUGUAGAUUUUAACAUGAGGAUCACCCAUGUAGAUCCUGAAUUAACUACAGAAGGGAACAUUC [Exclusion 5: 2:c] (Eterna round: R96, puzzle: Exclusion 5) 20.7 nM

Entry under review: AGCGAAUAGACAGGAUAUGAGAAUAGAUAGAGCUCAGAAGGGUCACAUGAGGAUCACCCAUGUGAAGUCUUGAGGCUGCGUGGU [Prohibition 18 - Jieux - Exclusion NG 1] (Eterna round: R96, puzzle: Exclusion NG 1) . Reported apparent KD of MS2 coat protein? 16.1 nM

If you can, please state the reported apparent KD of MS2 coat protein value of AAAUCGUGAGGAUAUCCAAUAUAUGACAUGAGGAUCACCCAUGUUUCCACUCGUACCUCCGGAGAAGGCACAGUUA [Ex5 #73] (Eterna round: R97, puzzle: Exclusion 5) . 26.3 nM

Request the reported apparent KD of MS2 coat protein associated with UCUGGUCGAGGAUAUACAUGAGGAUCACCCAUGUGGUUACGUGACGAUAGUCACGAAUGUAGAAGGCGACCAGA [E3/4-A2] (Eterna round: R97, puzzle: Exclusion 3) 230 nM

I have this sequence here, UUUGUAUAUGAAGGAUAUACUUAACAUGAGGAUCACCCAUGUGGUGUUGUGAGUGAGUGAGUUUAGUAGAAGGUCAAUUCUUUU [JMF's solution 92] (Eterna round: R96, puzzle: Exclusion NG 2) , and I need its recorded apparent KD of MS2 coat protein. 434 nM

* * *

tested on: MS2 coat protein; test: apparent KD of MS2 coat protein; designed switch direction (-1 OFF switch, 1 ON switch): -1; higher = weaker reporter binding; conditions: input ligand: none
So basically: apparent KD of MS2 coat protein at 100 nM or higher? That is criterion met. Lower than 100 nM? That is criterion not met.

Check this sequence for apparent KD of MS2 coat protein at or above 100 nM: ACAAGCUUAAAAAUCCUAAACAUGAGGAUCACCCAUGUUCGUCUUAUAAAAAUAAAAAUAAAAAACAAAAAAUAAAA [Sensor V2: 71] (Eterna round: R96, puzzle: Sensor v2, turn-off variant) criterion not met

Item ACGAUGACCGAAAGAUGUCAAAAGACAUGAGGAUCACCCAUGUAGGAUAUGGCUACGAAAAGUAGUCAGAAGGACAUGUCAUCA [Omei Exc(NG) 3 A] (Eterna round: R96, puzzle: Exclusion NG 3) with apparent KD of MS2 coat protein of 100 nM or above? criterion not met

Does apparent KD of MS2 coat protein meet or surpass 100 nM for UAAAGUCAAGGAUAUGGAAGUCCAAACAUGAGGAUCACCCAUGUAAACACAUUGGGAAGCCCAGAAGGUGGCCGUA [Eternabot (L2) Solution 31] (Eterna round: R97, puzzle: Exclusion 5) ? criterion met

// inclusive: apparent KD of MS2 coat protein at least 100 nM? input: GUACUACAUGAGGAUCACCCAUGUCAGGAUAUGCGAAUUUCAUCAAAAGAUGAAAUUUGCAGAAGGGACAGUAC [Omei Ex1 A1] (Eterna round: R97, puzzle: Exclusion 1) criterion not met

* * *

tested on: MS2 coat protein; assay: apparent KD of MS2 coat protein; higher = weaker reporter binding; conditions: Eterna round: R107; input ligand: tryptophan 2.4 mM
Record form. Attribute: apparent KD of MS2 coat protein. Fill in for each entry.
Field: numeric (nM). Do not append units.

Fill blank: measured apparent KD of MS2 coat protein of the sequence ACGUCUCGAAAACUCGUAGUAACAAUAGAUACCAGUAGCGAGAGUUACCCUUGGCAGCUACAUGAGGAUCACCCAUGUACGAGGA [XTheo A #27] is ____. 18.1

Given GAAGGAACCGGAAGGAGCGGGUCCUUAGCCACUACAUGAGGAUCACCCAUGUCCGGGAGGUCCCAGGUAGGUCGCCGGUCUUAAA [Gelece] , state its recorded apparent KD of MS2 coat protein. 267

Report apparent KD of MS2 coat protein for UGAUCCUAGACUGAUACCAGUCAUGAGUACAUGAGGAUCACCCAUGUCCAGGGACUCAAUGACCCUUGGCAGCAGAACCUAGUUC [Theo B SS t7] please. 389

Please look up its apparent KD of MS2 coat protein: ACAUGAAGAACAGCGGUGGGCGCGCUCGAUACCAGUACUUUGAUUUACCCUUGGCAGCGACAUGAGGAUCACCCAUGUGAGAUGA [XTheo A #1] 18.6

# get_value(readout='apparent KD of MS2 coat protein', item= CGGUGUAGGGUUAAUAGGCUGAGUACAGAAGGAGCGCGAAUAAACGCAGGUAGGUCGCUGGCGAACAUGAGGAUCACCCAUGUAU [Same State Arginine A GF 30] ) 15.9

Looking for the measured apparent KD of MS2 coat protein of GUAAUUAUAAGAAGGAGCGUCGAAAAUGGGUAAACAUGAGGAUCACCCAUGUAAAGGGAACGACAGGUAGGUCGCUUAUGGUUAC [AstromonsSSArgB#24] , can you help? 214

* * *

tested on: MS2 coat protein; assay: apparent KD of MS2 coat protein; higher = weaker reporter binding; settings: Eterna round: R107; input ligand: none
Label yes (1) when apparent KD of MS2 coat protein is at or above 0.03 µM; anything below gets no (0).

Hi team, for UUAAUCUUGGUUGAAAACAAUUAAGCAGAAGGAGCGUGAUAAAACACAGGUAGGUCGCUGAAGGGAACAUGAGGAUCACCCAUGU [AstrosSSArgA#14] , is the recorded apparent KD of MS2 coat protein at or above 0.03 µM? no (0)

Hi team, for CACGAAAGAUCGGCCGCCACUAGCCUGUGUGUACUAGCACAUGAGGAUCACCCAUGUUCUUGCGUUAGGACCGGGAUUGAGCGUG [#05 Exclusion Tryptophan B] , is the recorded apparent KD of MS2 coat protein at or above 0.03 µM? no (0)

// inclusive: apparent KD of MS2 coat protein at least 0.03 µM? input: CCCAGUUAGAUCAAAGGAAUUAUACUCGAAGGAGCGUCAUAGUAGGCAGGUAGGUCGCGAGACAUGAGGAUCACCCAUGUAGAGA [azqmullin] yes (1)

Answer whether apparent KD of MS2 coat protein of CCUAUGCAGUCGGCCGCCACUGAGUCCUCAAUAAUAAAUUAUUAUACAUGAGGAUCACCCAUGUACAGGACCGGGACUGUAUAGG [Ex Tryptophan B 14] is greater than or equal to 0.03 µM. yes (1)

Please check the record UGGUGUAGGGUAAAUAGGAUUAGUACAGAAGGAGCGCGAAUAAACGCAGGUAGGUCGCUGGAAUACAUGAGGAUCACCCAUGUUC [Same State Arginine A GF 25] and state if its apparent KD of MS2 coat protein is at or above 0.03 µM. no (0)

Can GCCGCGGCCGCGAUACACAUGGGUGUGUAACGAGGACCGGUACGGCCGCCACUCGAGAUGGUGCACAUGAGGAUCACCCAUGUGC [Exclusion Tryp A GF15] be said to have apparent KD of MS2 coat protein at or above 0.03 µM? no (0)

Dear colleague, could you confirm whether `UGUAUGUGAUCUGAUACCAGUCCAACUGGUAAAACACGAGGAUCACCCGUGUAAAAUUGGGACCCUUGGCAGCAGAUCGCAUACU` has apparent KD of MS2 coat protein at or above 0.03 µM? yes (1)

Given UGUACCAUGUCGGCCGCCACUCAUGAUAAAUAUGAGGAUCACCCAUAUAGCGUCAAAGACGCUAUGAGGACCGGGACAUGGUACU [TryBS Zipper 2] , state whether its apparent KD of MS2 coat protein is at least 0.03 µM. yes (1)

Does apparent KD of MS2 coat protein meet or surpass 0.03 µM for GGGCGUGUGGUGCGGCGUGUUCCGCUCCGUCGAGGACCGGUACGGCCGCCACUCGACAUGAGGAUCACCCAUGUGCGAGCGCGCG [#1 Exclusion - Tryptophan A Attempt #8 (HarryS)] ? no (0)

Evaluate GAAGGAACCGGAAGGAGCGGGUCCUUAGCCACUACAUGAGGAUCACCCAUGUCCGGGAGGUCCCAGGUAGGUCGCCGGUCUUAAA [Gelece] : apparent KD of MS2 coat protein at minimum 0.03 µM? yes (1)

Could you please find out whether CCGACGAUGACCAAAGGUCAGGAGUGCGCACGAGGACCGGUACGGCCGCCACUCGAGGAGUGGGACAUGAGGAUCACCCAUGUAA [X-TryptA-ms2@65-1] has apparent KD of MS2 coat protein that meets 0.03 µM or exceeds it? no (0)

Record AGCCACUCGAGUGAUCCUCACGAGUGGCUACGAGGACCGGUACGGCCGCCACUCGAAUCAACAUGAGGAUCACCCAUGUAAUAAU [Brourdmod02] ; criterion: apparent KD of MS2 coat protein no lower than 0.03 µM. Met? yes (1)
